Data credit: the supplement of paper PMC10567573

B1: NET1 (parent)
chain: IKRTIRVLDVNNQSFREQEEPSNK

# Variants of: B1
# experiment-notes: protein stability index of a GFP-peptide fusion (GPS, HEK-293T) (PSI 1-6); higher = more stable;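 note: lentivirally expressed fusions sorted by FACS into six bins by GFP to DsRed ratio, PSI derived from sequencing read proportions per bin multiplied by bin number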
# measurement-setup: c terminus: a fixed tail appended
# protein stability index per record follows
readout-type: protein stability index

>>> experimental_result("R3T")
4.02
>>> experimental_result("N11Y")
4.06
>>> experimental_result("I5Q")
5.04
>>> experimental_result("E19Q")
2.76
>>> experimental_result("I5D")
4.91
>>> experimental_result("K24F")
2.98
>>> experimental_result("I5Y")
3.95
>>> experimental_result("V7G")
3.92
>>> experimental_result("Q18K")
2.91
>>> experimental_result("N12C")
3.16
>>> experimental_result("Q18P")
3.49
>>> experimental_result("D9H")
4.23
>>> experimental_result("P21R")
3.68
>>> experimental_result("S14Q")
3.91
>>> experimental_result("I5E")
5.05
>>> experimental_result("Q13S")
4.19
>>> experimental_result("K24M")
3.82
>>> experimental_result("E19T")
3.34
>>> experimental_result("S22F")
2.55
>>> experimental_result("P21W")
3.12
>>> experimental_result("N11L")
2.26
>>> experimental_result("S14G")
4.17
